Where do these numbers come from? They come from ChEMBL document CHEMBL2057129.

Reported IC50 values for a set of compounds
system-under-test: Peptidyl-prolyl cis-trans isomerase FKBP4 (Homo sapiens, UniProt Q02790)
Sequence (Q02790 whole entry, the tested form may be a part): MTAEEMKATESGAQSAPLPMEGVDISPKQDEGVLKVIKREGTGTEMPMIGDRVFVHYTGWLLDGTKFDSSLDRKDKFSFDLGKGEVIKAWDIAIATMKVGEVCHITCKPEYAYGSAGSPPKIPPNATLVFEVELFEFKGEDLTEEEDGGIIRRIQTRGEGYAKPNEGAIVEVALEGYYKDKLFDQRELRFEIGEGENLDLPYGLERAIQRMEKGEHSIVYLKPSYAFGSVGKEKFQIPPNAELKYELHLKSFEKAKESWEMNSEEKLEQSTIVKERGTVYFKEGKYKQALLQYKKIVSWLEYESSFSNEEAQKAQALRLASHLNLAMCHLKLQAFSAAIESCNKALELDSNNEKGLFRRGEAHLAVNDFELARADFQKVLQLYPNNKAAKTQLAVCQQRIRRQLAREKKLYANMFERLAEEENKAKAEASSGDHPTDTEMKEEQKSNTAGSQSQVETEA
assay-text: Binding affinity to FKBP52 FK1 domain by fluorescence polarization assay

Sample records with IC50:
[[record]]
compound = "CCC(C)(C)C(=O)C(=O)N1CCCC[C@H]1C(=O)O[C@H](CCc1ccc(OC)c(OC)c1)c1cccc(N)c1"
measurement = "1.07 µM"

[[record]]
compound = "COc1cc(C(=O)C(=O)N(C)[C@@H](Cc2ccc(Cl)cc2)C(=O)N(Cc2ccccc2)C(CCc2ccncc2)CCc2ccncc2)cc(OC)c1OC"
measurement = "> 100 µM"


I have this compound here, COc1ccc(CCOC(=O)[C@@H]2CCCCN2C(=O)C(=O)[C@]2(O)CCCC[C@H]2C)cc1OC (mixture of isomers) , and I need its recorded IC50.
> 100 µM
